Target: STAT3 (Homo sapiens)
Sequence (P40763 127-688): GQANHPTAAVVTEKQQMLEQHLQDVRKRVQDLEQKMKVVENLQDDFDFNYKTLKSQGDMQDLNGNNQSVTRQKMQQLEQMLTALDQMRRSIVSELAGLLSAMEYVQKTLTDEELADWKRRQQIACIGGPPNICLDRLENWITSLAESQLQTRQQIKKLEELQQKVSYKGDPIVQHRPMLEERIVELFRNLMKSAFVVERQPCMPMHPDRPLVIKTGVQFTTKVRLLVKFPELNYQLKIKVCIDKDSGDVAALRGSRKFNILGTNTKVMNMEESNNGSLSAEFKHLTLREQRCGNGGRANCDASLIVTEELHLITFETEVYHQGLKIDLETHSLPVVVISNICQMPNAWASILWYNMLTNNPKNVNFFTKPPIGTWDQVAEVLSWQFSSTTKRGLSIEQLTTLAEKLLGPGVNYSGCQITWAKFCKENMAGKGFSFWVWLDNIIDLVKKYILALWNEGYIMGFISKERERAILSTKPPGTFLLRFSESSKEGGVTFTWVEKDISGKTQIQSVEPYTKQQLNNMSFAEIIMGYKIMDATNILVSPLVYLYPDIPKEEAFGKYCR
pKd: −log10 of the molar value.
endpointLabel: pKd

compound	targetEntity	pKd
CC(=O)N1CC[C@H]2CC[C@@H](C(=O)N[C@@H](CCC(N)=O)C(=O)NC(c3ccccc3)c3ccccc3)N2C(=O)[C@@H](NC(=O)c2cc3cc(C(F)(F)P(=O)(O)O)ccc3[nH]2)C1 [SI-109]	STAT3 (Homo sapiens)	~7.30

Q: Specify pKd for NC(=O)CC[C@H](NC(=O)[C@@H]1CC[C@@H]2CCN(C(=O)CCCCCC#Cc3cccc4c3CN(C3CCC(=O)NC3=O)C4=O)C[C@H](NC(=O)c3cc4cc(C(F)(F)P(=O)(O)O)ccc4[nH]3)C(=O)N21)C(=O)NC(c1ccccc1)c1ccccc1 (some centres unmarked) [SD-36] , system STAT3 (Homo sapiens).
A: ~7.30
